- system_name: rec-mTSPO Y34F (Mus musculus, UniProt P50637, Y34F)
- Construct: His tag
- assay_procedure: [3H]-PK 11195 saturation binding to rec-mTSPO reconstituted in proteoliposomes
assay_endpoint: Kd (nM)
One number for each entry, in nM.

Fill in the blank: the reported Kd of CCC(C)N(C)C(=O)c1cc2ccccc2c(-c2ccccc2Cl)n1 (stereo not shown) is ____.
20

---

- system_name: rec-mTSPO ΔC-ter (153–169) (Mus musculus)
assay_endpoint: Kd (nM)
One number for each entry, in nM.

Recorded Kd of CCC(C)N(C)C(=O)c1cc2ccccc2c(-c2ccccc2Cl)n1 (stereo not shown) , please.
20
